The following compounds are listed with their measured GI50 values.
Test system: OVCAR-3
Assay: NCI tumour cell line growth inhibition, 48 h
Active and inactive are the calls of the source. No stated cut-off is given here; in the data, active = GI50 up to about 1.1 µM and inactive = higher.

COMPOUND	GI50
CCOC(=O)c1c(N2CCCC2)[nH]c(=O)c(C(c2ccco2)c2c(O)c(C(=O)OCC)c(N3CCCC3)[nH]c2=O)c1O	> 100 µM (inactive)
CN(C)CCCN1c2ccc([N+](=O)[O-])cc2CCc2cc([N+](=O)[O-])ccc21	15.5 µM (inactive)
O=C1OC(C(O)C(O)C(O)CO)C(O)C1O (stereo not given)	> 100 µM (inactive)
CCOP(=O)(OCC)/C(C#N)=C/c1cnc(C)[nH]1	> 100 µM (inactive)
Cc1cn(C2CC(N=[N+]=[N-])C(COP(=O)(O)OCC3OC(n4cc(F)c(=O)[nH]c4=O)CC3O)O2)c(=O)[nH]c1=O (stereo not given)	> 100 µM (inactive)

* * *

Test system: TK-10
Assay: NCI tumour cell line growth inhibition, 48 h
Activity calls are given as the source filed them. Cut-off read from the data, not from the text of the source: active = GI50 up to about 1.1 µM and inactive = higher. Where a SMILES comes first, the peptide text is derived from it. The star is where a group is joined. Fmoc = O=C(OCC1c2ccccc2-c2ccccc21)*; OBn = c1ccc(CO*)cc1; tBu = CC(C)(C)*
Classes used: active, inactive

COMPOUND	DISCRETE LABEL
CC1C(=O)CCC1C(Sc1ccccc1)(Sc1ccccc1)Sc1ccccc1 (stereo not given)	inactive
CC(OC(C)(C)C)C(NC(=O)OCC1c2ccccc2-c2ccccc21)C(=O)NC(Cc1ccccc1)C(=O)OCc1ccccc1 (stereo not given) (Fmoc-Thr(tBu)-Phe-OBn; configuration not given here)	inactive
c1ccc2cc3n[se]nc3cc2c1	inactive
COc1cc(/C=C/C=C2\CC/C(=C\C=C\c3ccc(O)c(OC)c3)C2=O)ccc1O	inactive
CCOC1SC(SC)=NN1C(=O)C(OC(C)=O)C(OC(C)=O)C(OC(C)=O)C(OC(C)=O)C(=O)N1N=C(SC)SC1OCC (stereo not given)	inactive
CCSc1c2ccccc2nc2c(OC)ccc(OC)c12	inactive
CC(=O)OCC1OC(n2c(-c3ccc(C)cc3)cc(-c3ccco3)c(C#N)c2=S)C(OC(C)=O)C(OC(C)=O)C1OC(C)=O (stereo not given)	inactive
COc1ccc(Nc2nc3cc(C(F)(F)F)ccc3nc2C(=O)O)cc1OC	inactive
Cc1cc(N)c2cc(NC(=O)CCCCCCCCC(=O)Nc3ccc4nc(C)cc(N)c4c3)ccc2n1	inactive
CC1=Nn2c(nc3sc4c(c3c2=O)CCCC4)SC1	inactive
Cc1nn(C(=O)c2ccccc2O)c2c1C(c1ccc(O)cc1O)SC(=N)N2 (stereo not given)	inactive
CC(=O)C1(O)CCC2(O)C3(O)CC=C4CC(O)CCC4(C)C3CC(OC(=O)c3ccc(O)cc3)C12C.COC1CC(OC2C(C)OC(OC3C(C)OC(OC4CCC5(C)C(=CCC6(O)C5CC(OC(=O)c5ccc(O)cc5)C5(C)C(O)(C(C)=O)CCC65O)C4)CC3OC)CC2OC)OC(C)C1O (stereo not given)	inactive
CCc1nc2cc(/N=N/c3c(O)ccc4ccccc34)ccc2[nH]1	inactive
CC(C)(Cc1ccccc1)NC1=NCCO1	inactive
O=C1CCN2C(=O)CCN12	inactive
CCCNc1[nH]c(C(=O)c2ccccc2)c(N)c1C(=S)Nc1ccccc1	inactive
CC(=O)Nc1ccc(/N=N\c2c(O)c(S(=O)(=O)O)cc3cc(S(=O)(=O)O)ccc23)cc1	inactive
CCCCCCCCCCCCCCCCCCNC(=O)OCC(CNS(=O)(=O)CCC[n+]1cccc2ccccc21)COC (stereo not given)	inactive
O=C1/C(=C/c2cccs2)NC(=S)N1CN1CCCCC1	inactive
NC(Cc1c[nH]c2cc([N+](=O)[O-])ccc12)C(=O)O (stereo not given)	inactive
c1c[nH]c(C23C4C5C6C4C2C6C53)n1 (stereo not given)	inactive
Oc1cccnc1/C=N/OCc1ccccc1	inactive
O=C1C=CC=CC2CC=C[C@@H](O)C12 (stereo not given in full)	inactive
CN(C)CCNC(=O)c1cccc2c(Nc3ccc(S(=O)(=O)N=C(N)N)cc3)c3ccccc3nc12	inactive
C/C(=N\NC(=S)N/N=C(\C)c1ccccn1)c1ccccn1	inactive
Fc1cc(-c2cc(-c3ccccc3)n[nH]2)c(Cl)cc1Cl	inactive
COC(=O)[C@H](C)NC(=O)[C@H](NS(=O)(=O)c1nc2ccccc2s1)c1ccccc1	inactive
O=C(O)c1ccccc1NS(=O)(=O)c1ccc([N+](=O)[O-])cc1	inactive
C=CC1=CC(C)C[C@]1(O)C(=O)OC (stereo not given in full)	active
O=[N+]([O-])c1ccc(C(Nc2ccccc2)P(c2ccccc2)c2ccccc2)cc1 (stereo not given)	inactive
COc1cc2c(cc1OCCCC(=O)Nc1cc(C(=O)Nc3cc(C(=O)NCCCN(C)C)n(C)n3)n(C)n1)N=CC1CCCN1C2=O (stereo not given)	inactive
COc1ccc(C(=O)O)c2c(=O)c3cccnc3[nH]c12	inactive
CNn1c(-c2ccccc2)n[nH]c1=O	inactive
O=c1/c(=C/c2ccccn2)sc2nc3cc4c(cc3n12)OCCO4	inactive
C1=C(CC2=C[P+](c3ccccc3)(c3ccccc3)C=C(c3ccccc3)O2)OC(c2ccccc2)=C[P+]1(c1ccccc1)c1ccccc1	active
COCOCc1cc(OCc2ccccc2)c(OC)cc1Br	inactive
O=[N+]([O-])C(=C(c1ccccc1)c1ccccc1)[N+](=O)[O-]	inactive
COC1=C(OC)C(=O)C(Cc2c(Cl)nc3n2CCS3)=C(C)C1=O	inactive
CC1=C(C)C(=O)c2c(cc3ccc4ccccc4n23)C1=O	inactive
COc1cccc(C2CC(=O)c3cccn32)c1 (stereo not given)	inactive

* * *

System: SNB-19
Assay: NCI tumour cell line growth inhibition, 48 h
Calls of active or inactive are those of the source. No stated cut-off is given here; in the data, active = GI50 up to about 1.1 µM and inactive = higher.

MOLECULE	GI50
CCCNc1[nH]c(C(=O)c2ccccc2)c(N)c1C(=S)Nc1ccccc1	> 100 µM (inactive)
Cc1ccc(/C(O)=C/c2nc3ccccc3oc2=O)cc1	> 100 µM (inactive)
Cn1cnc([N+](=O)[O-])c1Sc1nc2cccnc2s1	78.9 µM (inactive)
CC1CCc2c(c(CC3CC(=O)NC(=O)C3)nn2-c2ccccc2)C1 (stereo not given)	> 100 µM (inactive)
O=C(Nc1c(O)[nH]c(=S)[nH]c1=O)c1ccccc1	> 100 µM (inactive)
C=Cc1cncc(C#N)c1CCc1c(C#N)cncc1C=C	> 10 µM (inactive)
CCOC(=O)N1C(=O)C2C3C=CC(C2C1=O)C1C2C(=O)N(C(=O)OCC)C(=O)C2C31 (stereo not given)	> 100 µM (inactive)
CN(CCN(C)C(=O)CCOS(C)(=O)=O)C(=O)CCOS(C)(=O)=O	> 100 µM (inactive)
CC(=O)OCC12C(OC(C)=O)C(=O)C3C(OC(C)=O)C14OC3(C)COC(=O)c1cccnc1C(C)C(C)C(=O)OC(C(OC(C)=O)C2OC(C)=O)C4(C)O (stereo not given)	> 100 µM (inactive)
Fc1cc(-c2cc(-c3ccccc3)n[nH]2)c(Cl)cc1Cl	> 100 µM (inactive)

* * *

Tested on: KM-20L2
Assay: NCI tumour cell line growth inhibition, 48 h
Active and inactive are the calls of the source. Rule as the data show it: active = GI50 up to about 1.1 µM and inactive = higher.
ENDPOINT LABEL: GI50

COMPOUND	TARGET	DATA VALUE
CCCCN(CCCC)CCCn1cnc2ncccc2c1=O	KM-20L2	> 100 µM (inactive)
O=C(Nc1c(O)[nH]c(=S)[nH]c1=O)c1ccccc1	KM-20L2	> 100 µM (inactive)
CN(CCN(C)C(=O)CCOS(C)(=O)=O)C(=O)CCOS(C)(=O)=O	KM-20L2	> 100 µM (inactive)
CC(C)(C)C(=O)Nc1ccccc1Br	KM-20L2	> 100 µM (inactive)
NC1(C(=O)O)CCCC1	KM-20L2	> 625 µM (inactive)

* * *

Tested on: SK-MEL-28
Experiment: NCI tumour cell line growth inhibition, 48 h
Activity calls are given as the source filed them. No stated cut-off is given here; in the data, active = GI50 up to about 1.1 µM and inactive = higher.
ENDPOINT LABEL: GI50

MOLECULE	ENDPOINT LABEL	DATA VALUE
O=C1CCN2C(=O)CCN12	GI50	> 100 µM (inactive)
Cc1c(-c2ccccc2)cc(O)c2nc3ccccc3n12	GI50	> 100 µM (inactive)
CN(C(=O)C12C3C4C1C1C2C3C41C(O)C(C)(C)C)C(C)(C)C (stereo unspecified)	GI50	> 100 µM (inactive)
Cc1ccc(C)c(COCCOCn2ccc(N)nc2=O)c1	GI50	> 100 µM (inactive)
CCN(CC)CCNC(=O)c1ccccc1Nc1c(Cl)cccc1Cl	GI50	18.3 µM (inactive)
O=C(O)c1ccccc1NS(=O)(=O)c1ccc([N+](=O)[O-])cc1	GI50	> 100 µM (inactive)

* * *

Test system: M14
Experiment: NCI tumour cell line growth inhibition, 48 h
Calls of active or inactive are those of the source. No stated cut-off is given here; in the data, active = GI50 up to about 1.1 µM and inactive = higher. Where a SMILES comes first, the peptide text is derived from it. Bridges are numbered along the chain shown (N, C = ends). [ ]: non-standard residue; d: D form. The star is where a group is joined. ξ: configuration not given here. X28 = O=C(/C=C/C=C/C=C/C=C/C=C/C(=O)*)NC1=C(O)CCC1=O; NMeA = CN[C@@H](C)C(=O)O; ξF = NC(Cc1ccccc1)C(=O)O; ξA = CC(N)C(=O)O

COMPOUND	GI50
CN(C)c1ccc(/C=N/c2ccc(-c3nc4ccccc4s3)cc2)cc1	41.1 µM (inactive)
CC[C@@H]1CC[C@@H]2[C@H](CC[C@]3(C)[C@@H](OC(C)=O)CC[C@@H]23)[C@H]1C(=O)OC	19.6 µM (inactive)
Cc1cc(N)c2cc(NC(=O)CCCCCCCCC(=O)Nc3ccc4nc(C)cc(N)c4c3)ccc2n1	> 84.9 µM (inactive)
COc1ccc2c(=O)c3cc([N+](=O)[O-])ccc3n(C)c2c1	> 100 µM (inactive)
CC1(C)CCCCCCCCCC(C)(CCCO)C1=O (centres undefined)	14.3 µM (inactive)
CC(O)(/C=C/c1ccccc1)P(=O)(O)c1ccccc1 (centres undefined)	> 100 µM (inactive)
CC1NC(=O)[C@H](C)N(C)C(=O)[C@@H]2CCCN2C(=O)[C@@H](NC(=O)C(Cc2ccccc2)NC(=O)/C=C/C=C/C=C/C=C/C=C/C(=O)NC2=C(O)CCC2=O)COC(=O)[C@@H]2CCCN2C1=O (some centres undefined) (X28-[ξF]SP[NMeA][ξA]P; ester 2-C)	> 100 µM (inactive)
COc1cccc(C2CC(=O)c3cccn32)c1 (centres undefined)	> 100 µM (inactive)
COC1=C(OC)C(=O)C(Cc2c(Cl)nc3n2CCS3)=C(C)C1=O	13.1 µM (inactive)
Fc1cc(-c2cc(-c3ccccc3)n[nH]2)c(Cl)cc1Cl	> 100 µM (inactive)
O=S(=O)(O)c1ccc2c(/N=N/c3ccc(/N=N/c4ccccc4)cc3)c(O)c(S(=O)(=O)O)cc2c1	> 100 µM (inactive)
O=[N+]([O-])c1ccc(C(Nc2ccccc2)P(c2ccccc2)c2ccccc2)cc1 (centres undefined)	> 100 µM (inactive)
COc1ccc(-c2onc(-c3ccc([N+](=O)[O-])cc3)c2C2=NCCN2)cc1	> 100 µM (inactive)
NP(=O)(Oc1c2occc2cc2ccc(=O)oc12)N(CCCl)CCCl (centres undefined)	> 100 µM (inactive)
COc1ccc(-c2nc3ncccn3c2-c2ccc([S+](C)[O-])cc2)cc1 (centres undefined)	> 100 µM (inactive)
O=C1c2ccccc2C(=O)c2c1ccc1nc3c(nc21)-c1c2ccccc2cc2cccc-3c12	32.4 µM (inactive)
Cc1ccc(S(=O)(=O)N2CC(CCN)c3ccccc32)cc1 (centres undefined)	2.29 µM (inactive)
COc1ccc(C(OC(C)=O)C2C(=C(C#N)C#N)c3ccccc3C2=C(C#N)C#N)cc1 (centres undefined)	40.7 µM (inactive)
COC(=O)[C@H](C)NC(=O)[C@H](NS(=O)(=O)c1nc2ccccc2s1)c1ccccc1	10.4 µM (inactive)
